This document collects AC50 values reported for Beta-2 adrenergic receptor (Homo sapiens).

# example entries with known answers
[
  {
    "MOLECULE": "NS(=O)(=O)c1cc(-c2nnn[nH]2)c(NCc2cccs2)cc1Cl [AZOSEMIDE]",
    "EXPERIMENTAL_TARGET": "Beta-2 adrenergic receptor (Homo sapiens)",
    "REPORTED_MEASUREMENT": "> 30 µM"
  },
  {
    "MOLECULE": "O=C(CCCCC(=O)Nc1c(I)cc(I)c(C(=O)O)c1I)Nc1c(I)cc(I)c(C(=O)O)c1I [IODIPAMIDE]",
    "EXPERIMENTAL_TARGET": "Beta-2 adrenergic receptor (Homo sapiens)",
    "REPORTED_MEASUREMENT": "> 10 µM"
  },
  {
    "MOLECULE": "COc1c(C)c2c(c(O)c1C/C=C(\\C)CCC(=O)OCCN1CCOCC1)C(=O)OC2 [MYCOPHENOLATE MOFETIL]",
    "EXPERIMENTAL_TARGET": "Beta-2 adrenergic receptor (Homo sapiens)",
    "REPORTED_MEASUREMENT": "> 30 µM"
  },
  {
    "MOLECULE": "CN1CCCN=C1COC(=O)C(O)(c1ccccc1)C1CCCCC1 (configuration not stated)",
    "EXPERIMENTAL_TARGET": "Beta-2 adrenergic receptor (Homo sapiens)",
    "REPORTED_MEASUREMENT": "> 10 µM"
  },
  {
    "MOLECULE": "CN(CCOc1ccc(NS(C)(=O)=O)cc1)CCc1ccc(NS(C)(=O)=O)cc1 [DOFETILIDE]",
    "EXPERIMENTAL_TARGET": "Beta-2 adrenergic receptor (Homo sapiens)",
    "REPORTED_MEASUREMENT": "> 10 µM"
  },
  {
    "MOLECULE": "Cc1ccc(C(=O)c2cc(O)c(O)c([N+](=O)[O-])c2)cc1",
    "EXPERIMENTAL_TARGET": "Beta-2 adrenergic receptor (Homo sapiens)",
    "REPORTED_MEASUREMENT": "> 10 µM"
  },
  {
    "MOLECULE": "C[C@]12CCC(=O)C=C1CC[C@@H]1[C@@H]2CC[C@@]2(C)[C@H]1CC[C@]2(C)O",
    "EXPERIMENTAL_TARGET": "Beta-2 adrenergic receptor (Homo sapiens)",
    "REPORTED_MEASUREMENT": "> 30 µM"
  },
  {
    "MOLECULE": "CN(C/C=C/c1ccccc1)Cc1cccc2ccccc12",
    "EXPERIMENTAL_TARGET": "Beta-2 adrenergic receptor (Homo sapiens)",
    "REPORTED_MEASUREMENT": "> 30 µM"
  },
  {
    "MOLECULE": "CN1CCC2=C(C1)C(c1ccccc1)c1ccccc12 (configuration not stated)",
    "EXPERIMENTAL_TARGET": "Beta-2 adrenergic receptor (Homo sapiens)",
    "REPORTED_MEASUREMENT": "> 10 µM"
  },
  {
    "MOLECULE": "O=C(O)c1cc(-c2ccc(F)cc2F)ccc1O",
    "EXPERIMENTAL_TARGET": "Beta-2 adrenergic receptor (Homo sapiens)",
    "REPORTED_MEASUREMENT": "> 10 µM"
  }
]

Count: 4. Required value per item: AC50.
1. CC(=O)NS(=O)(=O)c1ccc(N)cc1 [SULFACETAMIDE]
2. Cc1nc2ccc(CN(C)c3ccc(C(=O)N[C@@H](CCC(=O)O)C(=O)O)s3)cc2c(=O)[nH]1
3. CN1C(=O)CC(c2ccccc2)C1=O (configuration not stated) [PHENSUXIMIDE]
4. CN[C@@H](C)[C@H](O)c1ccccc1

Result string:
1: > 10 µM; 2: > 30 µM; 3: > 10 µM; 4: > 10 µM

###

This document collects AC50 values reported for 5-hydroxytryptamine receptor 5A (Homo sapiens, UniProt P47898).

Count: 2. Required value per item: AC50.
1. C#C[C@]1(O)CC[C@H]2[C@@H]3CCc4cc(O)ccc4[C@H]3CC[C@@]21C
2. O=C(Nc1ccccc1)OCC(CN1CCCCC1)OC(=O)Nc1ccccc1 (stereo not given)

Result string:
1: > 30 µM; 2: > 10 µM

###

# EXPERIMENTAL_TARGET: Alpha-2A adrenergic receptor (Homo sapiens, UniProt P08913); further: assay procedure not described here
# Sequence (P08913 whole entry): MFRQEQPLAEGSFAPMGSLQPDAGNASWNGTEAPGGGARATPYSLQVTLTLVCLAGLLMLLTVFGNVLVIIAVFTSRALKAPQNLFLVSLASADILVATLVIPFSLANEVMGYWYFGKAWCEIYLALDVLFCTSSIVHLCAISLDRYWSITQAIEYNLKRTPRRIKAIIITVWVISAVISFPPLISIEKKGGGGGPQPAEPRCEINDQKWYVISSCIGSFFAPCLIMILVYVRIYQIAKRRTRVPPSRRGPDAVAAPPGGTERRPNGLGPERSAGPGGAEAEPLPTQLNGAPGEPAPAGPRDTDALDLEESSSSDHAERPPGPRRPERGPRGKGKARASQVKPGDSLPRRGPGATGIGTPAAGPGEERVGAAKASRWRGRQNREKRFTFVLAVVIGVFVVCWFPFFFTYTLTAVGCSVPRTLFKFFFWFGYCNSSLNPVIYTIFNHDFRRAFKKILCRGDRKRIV
# Type: functional, cell-based
READOUT_KIND: AC50

# example entries with known answers
[
  {
    "MOLECULE": "C1COC(NC(C2CC2)C2CC2)=N1",
    "REPORTED_MEASUREMENT": "1.31 µM"
  },
  {
    "MOLECULE": "OCCN1CCN(CCCN2c3ccccc3C=Cc3ccccc32)CC1",
    "REPORTED_MEASUREMENT": "> 30 µM"
  }
]

Count: 6. Required value per item: AC50.
1. COc1c(C)c2c(c(O)c1C/C=C(\C)CCC(=O)OCCN1CCOCC1)C(=O)OC2 [MYCOPHENOLATE MOFETIL]
2. CC(C(=O)O)c1ccc(C(=O)c2cccs2)cc1 (stereo unspecified)
3. O=C(NC[C@H]1CN(c2ccc(N3CCOCC3=O)cc2)C(=O)O1)c1ccc(Cl)s1
4. Cc1c(Cl)cccc1Nc1ccccc1C(=O)O
5. CC(N)Cc1ccccc1 (stereo unspecified)
6. O=C(Nc1ccccc1)OCC(CN1CCCCC1)OC(=O)Nc1ccccc1 (stereo unspecified)

Result string:
1. > 30 µM
2. > 10 µM
3. > 30 µM
4. > 30 µM
5. > 30 µM
6. > 10 µM

Count: 4. Required value per item: AC50.
1. CS(=O)(=O)c1ccc([C@@H](O)[C@@H](CO)NC(=O)C(Cl)Cl)cc1
2. C[N+](C)(C)CCOC(N)=O
3. CCC(C(=O)O)c1ccc(CC(C)C)cc1 (stereo unspecified)
4. Cc1cc2c(OCC(CNC(C)(C)C)OC(=O)c3ccccc3)cccc2[nH]1 (stereo unspecified)

Result string:
["> 30 µM", "> 30 µM", "> 30 µM", "> 30 µM"]

Count: 4. Required value per item: AC50.
1. O=C(O)CCCc1ccccc1
2. COCC1=C(C(=O)OC(C)OC(=O)OC(C)C)N2C(=O)[C@@H](NC(=O)/C(=N\OC)c3csc(N)n3)[C@H]2SC1 (stereo partly specified)
3. C#CCN[C@@H]1CCc2ccccc21
4. CC(C(=O)O)c1ccc(N2CC=CC2)c(Cl)c1 (stereo unspecified)

Result string:
1: > 30 µM; 2: > 30 µM; 3: > 30 µM; 4: > 10 µM

Count: 8. Required value per item: AC50.
1. CN(C)C(=O)OC1N=C(c2ccccc2)c2cc(Cl)ccc2N(C)C1=O (stereo unspecified)
2. CC(C)C(=O)OCC(=O)[C@@]12O[C@H](C3CCCCC3)O[C@@H]1C[C@H]1[C@@H]3CCC4=CC(=O)C=C[C@]4(C)[C@H]3[C@@H](O)C[C@@]12C [CICLESONIDE]
3. C#C[C@]1(O)CC[C@H]2[C@@H]3CCc4cc(O)ccc4[C@H]3CC[C@@]21C
4. C[C@]12CCC(=O)C=C1CC[C@@H]1[C@@H]2CC[C@@]2(C)[C@H]1CC[C@]2(C)O
5. CN1C(=O)CC(C)(c2ccccc2)C1=O (stereo unspecified) [METHSUXIMIDE]
6. C[C@H]1C[C@@H]2[C@H]([C@@H](O)C[C@@]3(C)[C@H]2CC[C@]3(O)C(=O)CO)[C@@]2(C)C=CC(=O)C=C12
7. CC[C@H](C)C(=O)O[C@H]1C[C@H](O)C=C2C=C[C@H](C)[C@H](CC[C@@H](O)C[C@@H](O)CC(=O)O)[C@H]21
8. Nc1ncnc2c1ncn2[C@@H]1O[C@H](COP(=O)(O)O)[C@@H](O)[C@H]1O [ADENOSINE PHOSPHATE]

Result string:
["> 10 µM", "> 10 µM", "> 10 µM", "> 30 µM", "> 10 µM", "> 10 µM", "> 30 µM", "> 30 µM"]

Count: 2. Required value per item: AC50.
1. N/N=c1/cc2c(n[nH]1)CCN(C(=O)c1ccccc1)C2
2. Oc1ncnc2[nH]ncc12

Result string:
1: > 30 µM; 2: > 10 µM

Count: 2. Required value per item: AC50.
1. CCCCN1CCCCC1C(=O)Nc1c(C)cccc1C (stereo unspecified)
2. Cc1c(O)c(=O)ccn1C

Result string:
1. > 30 µM
2. > 30 µM

Count: 4. Required value per item: AC50.
1. CCCCCCC(C)(C)c1cc(O)c2c(c1)OC(C)(C)C1CCC(=O)CC21 (stereo unspecified)
2. O=C1CCC(N2C(=O)c3ccccc3C2=O)C(=O)N1 (stereo unspecified) [THALIDOMIDE]
3. CO/N=C(\C(=O)N[C@@H]1C(=O)N2C(C(=O)[O-])=C(C[N+]3(C)CCCC3)CS[C@H]12)c1csc(N)n1
4. C#CCN(C)[C@H](C)Cc1ccccc1

Result string:
1. > 30 µM
2. > 10 µM
3. > 300 µM
4. > 10 µM

Count: 4. Required value per item: AC50.
1. CCCCCOC(=O)Nc1nc(=O)n([C@@H]2O[C@H](C)[C@@H](O)[C@H]2O)cc1F
2. CC(C)NCC(O)COc1ccc(COCCOC(C)C)cc1 (stereo unspecified)
3. CN(C)CCCN1c2ccccc2Sc2ccccc21
4. CN1CCN(C(=O)OC2c3nccnc3C(=O)N2c2ccc(Cl)cn2)CC1 (stereo unspecified)

Result string:
> 30 µM
> 10 µM
> 10 µM
> 10 µM

FYI, the data here is from ChEMBL document CHEMBL5291721.
